Molecular target: T1, TROP2 antigen (extracellular region of TROP2, expressed in 293F cells) (human, UniProt P09758 27-274)
T1 construct: extracellular domain; The antigen was coated on ELISA plates; For the Octet assay it was biotin-labelled and immobilized on streptavidin sensors; also called TROP2 protein
T1 sequence (looked up): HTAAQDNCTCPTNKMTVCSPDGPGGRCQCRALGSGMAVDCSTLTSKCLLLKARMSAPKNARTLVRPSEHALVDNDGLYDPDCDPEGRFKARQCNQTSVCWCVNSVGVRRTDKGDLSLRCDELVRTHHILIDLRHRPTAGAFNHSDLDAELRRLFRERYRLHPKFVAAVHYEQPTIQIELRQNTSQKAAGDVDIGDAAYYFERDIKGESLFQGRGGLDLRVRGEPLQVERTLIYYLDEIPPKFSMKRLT
Assay: BLI (ForteBio Octet), biotin-labelled antigen on streptavidin sensor, antibody in solution
pKd: −log10 of the molar value.
parameter.measured: pKd

{"binder": "7F11 chimeric antibody (antibody, human IgG1, kappa, V domains shown, The entries begin with a leader (signal) peptide; also called ch7F11) VH: QVQLQQSGPEVVKPGASVKMSCKASGYTFTDHVISWVKQRTGQGLEWIGQIYPGSDNSYYSEKLKDKATLTADKSSNTAYMQLVSLTSEDSAVYFCAREGYGYGKNGVGYAMDYWGQGTSVTVSS VL: SIVMTQTPKFLLVSAGDRVTITCKASQSVSNDVVWYQQKPGQSPKLLIYYASNRYTGVPDRFTGSGYGTDFTFTISTAQAEDLAVYFCQQDYSSPWTFGGGTKLEIKR", "assay.value": 10.21}
